# protocol-description: NCI Yeast Anticancer Drug Screen. Data for the sgs1 mgt1 strain (AID 161);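 further: 0% = growth of cultures given vehicle only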
# protocol-conditions: S. cerevisiae sgs1 mgt1 strain, at 50.0 µM, hits give high values
This is part of a sample that, as a whole, favours compounds with a hit. Of some 79,000 tested, about 15% had one in any assay.
# growth inhibition per entry
Lab book: enter the figure in %, no units written.

Answered cases to consult:
Q: Output growth inhibition of CC12CC(=O)NC(=O)N1CCS2 (configuration not stated)
A: -1.85

Q: Output growth inhibition of CCCC(C)C(=O)O (configuration not stated)
A: 4

Q: Output growth inhibition of CC(=O)NCCCCN(CCCNC(C)=O)C(=O)CNS(=O)(=O)c1cccc2c(N(C)C)cccc12
A: 16.2

Further cases:
Q: Output growth inhibition of CC(C)OC(=O)NN(C)c1ccccc1
A: 14

Q: Output growth inhibition of CN(C)Cc1[nH]c2ccccc2c1Sc1ccccc1
A: 24.6

Q: Output growth inhibition of CNc1ncn(-c2c(C)cccc2C)c(=O)n1
A: 8.85
